target: human σ1 receptor (Homo sapiens, UniProt Q99720); assay: biochemical; format: binding
Sequence (Q99720 whole entry): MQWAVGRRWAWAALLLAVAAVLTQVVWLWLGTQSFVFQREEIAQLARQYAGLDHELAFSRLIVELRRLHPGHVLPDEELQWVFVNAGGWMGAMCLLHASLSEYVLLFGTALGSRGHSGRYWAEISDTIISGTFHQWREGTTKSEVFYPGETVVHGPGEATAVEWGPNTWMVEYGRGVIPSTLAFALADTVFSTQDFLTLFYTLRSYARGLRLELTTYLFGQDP
pKi: −log10 of the molar value.
Recorded pKi for the following compounds

| structureAsSmiles | pKi |
| --- | --- |
| CCC(=O)N(CC1(N2CCN(CCC(C)C)CC2)CC1)c1cccc(C(F)(F)F)n1 | > 7.00 |
| CCC(=O)N(CC1(N2CCN(CCC(C)C)CC2)CCOCC1)c1cccc(C#N)n1 | > 6.30 |
| CCC(=O)N(CC1(N2CCN(CC(=O)N3CCCCC3)CC2)CCOCC1)c1ccccc1 | < 6.30 |
| CCC(=O)N(CC1(N2CCN(Cc3ccccc3)CC2)CC1)c1cccnc1 | > 6.30 |
| CCC(=O)N(CC1(N2CCN(Cc3cncc(F)c3)CC2)CCOCC1)c1ccccc1 | > 6.30 |
| CCOCCN1CCN(C2(CN(C(=O)CC)c3cccc(C(F)(F)F)n3)CCC2)CC1 | > 6.30 |
| CCC(=O)N(CC1(N2CCN(Cc3ccccc3)CC2)CC1)c1ncccc1C#N | > 6.30 |

API: the following record is the query input.
Item `CCC(=O)N(CC1(N2CCN(CCOC(C)C)CC2)CC1)c1cccc(C(F)(F)F)n1` was tested on human σ1 receptor (Homo sapiens, UniProt Q99720); the reported pKi is > 6.30

====

Recorded Ki for the following compounds
target: human σ1 receptor (Homo sapiens, UniProt Q99720); test: biochemical; format: binding

Here is how some compounds turned out for Ki.
| compound | reading |
| --- | --- |
| CCC(=O)N(CC1(N2CCN(CCO)CC2)CCOCC1)c1cccc(C(F)(F)F)n1 | > 0.5 µM |
| CCC(=O)N(CC1(N2CCN(CCOC(C)C)CC2)CCOC(C)(C)C1)c1cccc(C#N)n1 (centres unmarked) | > 0.5 µM |
| CCOCCN1CCC(C2(CN(C(=O)CC)c3cccc(C(F)(F)F)n3)CCOCC2)CC1 | < 0.5 µM |
| CCC(=O)N(CC1(N2CCN(Cc3ccccc3)CC2)CCOCC1)c1ccccc1Cl | < 0.1 µM |
| CCOCCN1CCN(C2(CN(C(=O)CC)c3ccccn3)CCOC(C)(C)C2)CC1 (centres unmarked) | > 0.5 µM |
| CCC(=O)N(CC1(N2CCN(CC(C)C)CC2)CCOC(C)(C)C1)c1cccc(C(F)(F)F)n1 (centres unmarked) | < 0.5 µM |
| CCC(=O)N(CC1(N2CCN(Cc3ccc(OC)nc3)CC2)CCOCC1)c1ccccc1 | < 0.5 µM |

For this compound ( `CCC(=O)N(CC1(N2CCN(Cc3ccccc3)CC2)CC1)c1cccc(C#N)n1` ), measured Ki is < 0.5 µM

====

Recorded pKi for the following molecules
target: human σ1 receptor (Homo sapiens); test: biochemical; format: binding
pKi: −log10 of the molar value.

Here is how some molecules turned out for pKi.
| molecule | pKi |
| --- | --- |
| CCOCCN1CCN(C2(CN(C(=O)CC)c3cccc(C(F)(F)F)n3)CCSCC2)CC1 | > 6.30 |
| CCC(=O)N(CC1(N2CCN(Cc3ccccc3)CC2)CCOCC1)c1cccc(C#N)n1 | > 6.30 |
| CCC(=O)N(CC1(N2CCN(Cc3cccc(F)c3)CC2)CCOCC1)c1ccccc1 | > 7.00 |

For this molecule ( CCOCCN1CCN(C2(CN(C(=O)CC)c3cccc(C#N)n3)CCOC(C)(C)C2)CC1 (centres unmarked) ), measured pKi is < 6.30

For this molecule ( `CCC(=O)N(CC1(N2CCN(Cc3ccccc3)CC2)CCOCC1)c1ccc(F)cn1` ), measured pKi is > 6.30

For this molecule ( `CCC(=O)N(CC1(N2CCN(CCc3ccncc3)CC2)CCOCC1)c1cccc(C(F)(F)F)n1` ), measured pKi is > 6.30

For this molecule ( `CC(C)(CN(C(=O)c1ccco1)c1ccccc1)N1CCN(CCc2ccccc2)CC1` ), measured pKi is > 7.00

For this molecule ( `CCC(=O)N(CC1(N2CCN(Cc3ccccc3)CC2)CCOCC1)c1ccc(F)cc1` ), measured pKi is > 6.30

For this molecule ( CCOCCN1CCN(C2(CN(C(=O)CC)c3cccc(C(F)(F)F)n3)CCOC3(CCCC3)C2)CC1 (centres unmarked) ), measured pKi is > 6.30

For this molecule ( `COCC(=O)N(CC1(N2CCN(Cc3ccccc3)CC2)CCOCC1)c1ccccc1` ), measured pKi is > 6.30

For this molecule ( `CCC(=O)N(CC1(N2CCN(Cc3ccccc3)CC2)CC1)c1cncc(F)c1` ), measured pKi is > 6.30

For this molecule ( `CCC(=O)N(CC1(N2CCN(CCc3ccccc3)CC2)CCCCC1)c1ccccn1` ), measured pKi is > 6.30

For this molecule ( `CCC(=O)N(CC1(N2CCN(Cc3ccccc3)CC2)CCOCC1)c1ccccc1O` ), measured pKi is > 6.30

For this molecule ( CCC(=O)N(CC1(N2CCN(C(C)CC)CC2)CCOC(C)(C)C1)c1cccc(C(F)(F)F)n1 (centres unmarked) ), measured pKi is < 6.30

For this molecule ( CCC(=O)N(CC1(N2CCN(C(C(=O)OC)c3ccccc3)CC2)CCOCC1)c1ccccn1 (centres unmarked) ), measured pKi is < 6.30

For this molecule ( `CCC(=O)N(CC1(N2CCN(Cc3cccc(F)c3)CC2)CC1)c1ccccc1` ), measured pKi is > 7.00

For this molecule ( `CCC(=O)N(CC1(N2CCN(CCOC(F)(F)F)CC2)CCOCC1)c1cccc(C(F)(F)F)n1` ), measured pKi is > 6.30
